The following compounds are listed with their measured pIC50 values.
tested.on: HSP90α protein (N-terminal) (Homo sapiens)
Construct: purchased BPS Bioscience #50298
measurement.description: HSP90α-binding fluorescent polarization (FP) assay, competition with BODIPY-labeled RNK04010
cond: probe RNK04010 (BODIPY-labeled) 5 nM, 25° C. 300 min
pIC50: −log10 of the molar value.

Solved entries:
# compound, tested.on, measurement.name, reported.result
measured = [
    ("CCc1cc(-c2nnc(C(=O)NC(C)C(F)(F)F)n2-c2ccc(CN3CCN(CC4CCN(C(=O)C[C@@H]5N=C(c6ccc(Cl)cc6)c6c(sc(C)c6C)-n6c(C)nnc65)CC4)CC3)cc2)c(O)cc1O (stereo partly drawn)", "HSP90α protein (N-terminal) (Homo sapiens)", "pIC50", "6.00 to 7.00"),
    ("COc1cccc(-c2cc(C(=O)Nc3ccc(-c4ccc(OC5CCN(C)CC5)cc4OCCN(C)C(=O)CNC(=O)C[C@@H]4N=C(c5ccc(Cl)cc5)c5c(sc(C)c5C)-n5c(C)nnc54)cc3)ccc2OC)c1", "HSP90α protein (N-terminal) (Homo sapiens)", "pIC50", "< 6.00"),
]

Now turn to the next compound.
The compound `COc1cccc(-c2cc(C(=O)Nc3ccc(-c4ccc(OC5CCN(C)CC5)cc4COCN(C)CC[C@@H]4N=C(c5ccc(Cl)cc5)c5c(sc(C)c5C)-n5c(C)nnc54)cc3)ccc2OC)c1` showed pIC50 equal to < 6.00

---

tested.on: HSP90α protein (N-terminal) (Homo sapiens)
Construct: purchased BPS Bioscience #50298
measurement.description: HSP90α-binding fluorescent polarization (FP) assay, competition with BODIPY-labeled RNK04010
cond: probe RNK04010 (BODIPY-labeled) 5 nM, 25° C. 300 min
Procedure: Binding of test compounds to HSP90α protein was measured by fluorescent polarization (FP) using the HSP90α (N-terminal) Assay Kit (BPS Bioscience, #50298), following the manufacturer's instructions, except as noted. […] After the final step of adding HSP90α protein to each assay well, plates were mixed by brief shaking, incubated at 25° C. for 120 min for FITC-geldanamycin or 300 min for RNK04010, and fluorescence was measured using a PerkinElmer EnVision Plate Reader. […]
pIC50: −log10 of the molar value.
measurement.name: pIC50

Solved entries:
# mol, pIC50
records = [
    ("Cc1sc2c(c1C)C(c1ccc(Cl)cc1)=N[C@@H](CC(=O)NCCOCCN[C@@H](C)C(=O)N[C@H](C(=O)N1CCC[C@H]1C(=O)Nc1snnc1-c1ccccc1)C1CCCCC1)c1nnc(C)n1-2", "< 6.00"),
    ("CCN(CC)CCNC(=O)c1nnc(-c2cc(C(C)C)c(O)cc2O)n1-c1ccc(CN2CCN(CC3CCN(C(=O)C[C@@H]4N=C(c5ccc(Cl)cc5)c5c(sc(C)c5C)-n5c(C)nnc54)CC3)CC2)cc1", "> 7.00"),
    ("Cc1sc2c(c1C)C(c1ccc(Cl)cc1)=N[C@@H](CC(=O)N1CCC(CN3CCN(Cc4ccc(-n5c(C(=O)NCCN6CCCCC6)nnc5-c5cc(C(C)C)c(O)cc5O)cc4)CC3)CC1)c1nnc(C)n1-2", "> 7.00"),
    ("Cc1sc2c(c1C)C(c1ccc(Cl)cc1)=N[C@@H](CC(=O)N1CCN(Cc3ccc4c(c3F)CN(C(=O)c3cc(C(C)C)c(O)cc3O)C4)CC1)c1nnc(C)n1-2", "6.00 to 7.00"),
    ("CCc1cc(-c2nnc(C(=O)NCCN3CCCCC3)n2-c2ccc(CN3CCN(CC4CCN(C(=O)C[C@@H]5N=C(c6ccc(Cl)cc6)c6c(sc(C)c6C)-n6c(C)nnc65)CC4)CC3)cc2)c(O)cc1O", "> 7.00"),
]

Now turn to the next compound.
The compound `Cc1sc2c(c1C)C(c1ccc(Cl)cc1)=N[C@@H](CC(=O)NCCOCCOCCOCCOc1ccc(Nc3cc(-n4nc(C(F)(F)F)c5c4CC(C)(C)CC5=O)ccc3C(N)=O)cc1)c1nnc(C)n1-2` showed pIC50 equal to < 6.00

---

tested.on: HSP90α protein (N-terminal) (Homo sapiens, UniProt P07900)
Construct: purchased BPS Bioscience #50298
measurement.description: HSP90α-binding fluorescent polarization (FP) assay, competition with FITC-geldanamycin
cond: probe FITC-geldanamycin 5 nM, 25° C. 120 min
Description: Binding of test compounds to HSP90α protein was measured by fluorescent polarization (FP) using the HSP90α (N-terminal) Assay Kit (BPS Bioscience, #50298), following the manufacturer's instructions, except as noted. […] After the final step of adding HSP90α protein to each assay well, plates were mixed by brief shaking, incubated at 25° C. for 120 min for FITC-geldanamycin or 300 min for RNK04010, and fluorescence was measured using a PerkinElmer EnVision Plate Reader. […]
pIC50: −log10 of the molar value.
The following compounds are listed with their measured pIC50 values.

Solved entries:
# mol, pIC50
measured = [
    ("CCOc1cc(N2CCC(C(=O)NCCOCCOCCOc3ccc(Nc4cc(-n5nc(C(F)(F)F)c6c5CC(C)(C)CC6=O)ccc4C(N)=O)cc3)CC2)ccc1Nc1ncc2c(n1)N(C)c1ccccc1C(=O)N2C", "< 6.00"),
    ("Cc1sc2c(c1C)C(c1ccc(Cl)cc1)=N[C@@H](CCNCc1ccc(-n3c(O)nnc3-c3cc(C(C)C)c(O)cc3O)cc1)c1nnc(C)n1-2", "6.00 to 7.00"),
]

The compound `Cc1sc2c(c1C)C(c1ccc(Cl)cc1)=N[C@@H](CC(=O)NCCOc1ccc(CN(C)Cc3ccc(-n4c(O)nnc4-c4cc(C(C)C)c(O)cc4O)cc3)cc1)c1nnc(C)n1-2` showed pIC50 equal to 6.00 to 7.00

---

tested.on: HSP90α protein (N-terminal) (Homo sapiens, UniProt P07900)
Construct: purchased BPS Bioscience #50298
measurement.description: HSP90α-binding fluorescent polarization (FP) assay, competition with FITC-geldanamycin
cond: probe FITC-geldanamycin 5 nM, 25° C. 120 min
pIC50: −log10 of the molar value.
measurement.name: pIC50

# compound, tested.on, reported.result
data = [
    ("CC[C@@H](C)Nc1cc(C(=O)NC2CC3CCC(C2)N3c2ccc(C(=O)c3ccc(CN4CCN(CC5CCN(C(=O)C[C@@H]6N=C(c7ccc(Cl)cc7)c7c(sc(C)c7C)-n7c(C)nnc76)CC5)CC4)cc3)cn2)c(C)cc1C(N)=O (stereo partly shown)", "HSP90α protein (N-terminal) (Homo sapiens, UniProt P07900)", "< 6.00"),
    ("CCc1cc(-c2nnc(O)n2-c2ccc(CN3CCC(C(=O)N4CCC(Nc5ncc(NC(=O)c6cc(C(=O)c7c(Cl)ccc(Cl)c7F)c[nH]6)cn5)CC4)CC3)cc2)c(O)cc1O", "HSP90α protein (N-terminal) (Homo sapiens, UniProt P07900)", "6.00 to 7.00"),
    ("Cc1sc2c(c1C)C(c1ccc(Cl)cc1)=N[C@@H](CC(=O)NCC(=O)NCCOc1ccc(-n3c(O)nnc3-c3cc(C(C)C)c(O)cc3O)cc1)c1nnc(C)n1-2", "HSP90α protein (N-terminal) (Homo sapiens, UniProt P07900)", "6.00 to 7.00"),
]

Now turn to the next compound.
The compound `CCn1c(=O)/c(=C2\Sc3ccccc3N2C)s/c1=C\c1cccc[n+]1CCCCCCNC(=O)C[C@@H]1N=C(c2ccc(Cl)cc2)c2c(sc(C)c2C)-n2c(C)nnc21` showed pIC50 equal to < 6.00

---

tested.on: HSP90α protein (N-terminal) (Homo sapiens, UniProt P07900)
Construct: purchased BPS Bioscience #50298
measurement.description: HSP90α-binding fluorescent polarization (FP) assay, competition with BODIPY-labeled RNK04010
cond: probe RNK04010 (BODIPY-labeled) 5 nM, 25° C. 300 min
pIC50: −log10 of the molar value.
The following compounds are listed with their measured pIC50 values.

Solved entries:
# compound, tested.on, pIC50
records = [
    ("CCCc1cc(-c2nnc(O)n2-c2ccc(CNC(=O)C3CCN(c4ccc(Nc5ncc6c(n5)N(C)c5ccccc5C(=O)N6C)c(OCC)c4)CC3)cc2)c(O)cc1O [Compound 121]", "HSP90α protein (N-terminal) (Homo sapiens, UniProt P07900)", "< 6.00"),
    ("COc1cccc(-c2cc(C(=O)Nc3ccc(-c4ccc(OC5CCN(C(=O)CNC(=O)N[C@@H]6N=C(c7ccc(Cl)cc7)c7c(sc(C)c7C)-n7c(C)nnc76)CC5)cc4O)cc3)ccc2OC)c1 [Compound 132]", "HSP90α protein (N-terminal) (Homo sapiens, UniProt P07900)", "< 6.00"),
    ("CCOc1cc(N2CCC(C(=O)NCc3ccc(-n4c(O)nnc4-c4ccc(O)cc4O)cc3)CC2)ccc1Nc1ncc2c(n1)N(C)c1ccccc1C(=O)N2C [Compound 119]", "HSP90α protein (N-terminal) (Homo sapiens, UniProt P07900)", "< 6.00"),
    ("CCOc1cc(N2CCC(C(=O)N3CCN(C(=O)O[C@H]4CC[C@H](Nc5cc(-n6nc(C(F)(F)F)c7c6CC(C)(C)CC7=O)ccc5C(N)=O)CC4)CC3)CC2)ccc1Nc1ncc2c(n1)N(C)c1ccccc1C(=O)N2C [Compound 152]", "HSP90α protein (N-terminal) (Homo sapiens, UniProt P07900)", "< 6.00"),
    ("CCNC(=O)c1nnc(-c2cc(CC)c(O)cc2O)n1-c1ccc(CN2CCN(CC3CCN(C(=O)C[C@@H]4N=C(c5ccc(Cl)cc5)c5c(sc(C)c5C)-n5c(C)nnc54)CC3)CC2)cc1 [Compound 59]", "HSP90α protein (N-terminal) (Homo sapiens, UniProt P07900)", "> 7.00"),
]

The compound Cc1sc2c(c1C)C(c1ccc(Cl)cc1)=N[C@@H](CC(=O)N[C@H](C)c1cccc(CN3CCC(Cc4ccc(-n5c(O)nnc5-c5cc(C(C)C)c(O)cc5O)cc4)CC3)c1)c1nnc(C)n1-2 [Compound 56] showed pIC50 equal to > 7.00

The compound Cc1sc2c(c1C)C(c1ccc(Cl)cc1)=N[C@@H](CC(=O)NCCOCCNC(=O)O[C@H]1CC[C@H](Nc3cc(-n4nc(C(F)(F)F)c5c4CC(C)(C)CC5=O)ccc3C#N)CC1)c1nnc(C)n1-2 [Compound 154] showed pIC50 equal to < 6.00

The compound CCc1cc(-c2nnc(C(=O)NC(C)C)n2-c2ccc(CN3CCN(CC4CCN(C(=O)C[C@@H]5N=C(c6ccc(Cl)cc6)c6c(sc(C)c6C)-n6c(C)nnc65)CC4)CC3)cc2)c(O)cc1O [Compound 74] showed pIC50 equal to > 7.00

The compound CCOc1cc(N2CCC(C(=O)NCCOCCNC(=O)O[C@H]3CC[C@H](Cc4cc(-n5nc(C)c6c5CC(C)(C)CC6=O)ccc4C(N)=O)CC3)CC2)ccc1N(CC)c1ncc2c(n1)N(C)c1ccccc1C(=O)N2C [Compound 151] showed pIC50 equal to < 6.00

Reference source: patent US20230391792A1
